- Study System: neutrophil elastase (Homo sapiens, UniProt P08246)
- Sequence (P08246 30-267): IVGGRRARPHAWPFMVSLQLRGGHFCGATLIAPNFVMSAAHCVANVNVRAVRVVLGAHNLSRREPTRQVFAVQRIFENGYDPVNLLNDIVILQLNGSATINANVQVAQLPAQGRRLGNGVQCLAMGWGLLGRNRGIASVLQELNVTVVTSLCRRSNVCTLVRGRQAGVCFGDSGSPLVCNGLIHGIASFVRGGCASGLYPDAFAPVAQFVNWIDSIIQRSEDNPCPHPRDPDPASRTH
- Assay Summary: Inhibition of neutrophil elastase, additional peptide inhibitors preincubated in phosphate buffer (Table 3)
- Assay type: biochemical
- Parameters: Neutrophil elastase was prepared by the procedure described by Baugh. et al; from tissue
- Applied Conditions: Conc. 2.0 × 10^-7 M
Quantity Kind: % Initial Activity

{"Compound": "CC(C)C(NC(=O)C1CCCN1C(=O)C(Cc1ccccc1)NC(=O)OC(C)(C)C)B(O)O [Boc--D-Phe--Pro--Boroval--OH]", "% Initial Activity": "54%"}
{"Compound": "CC(C)C(NC(=O)C(CCCCNC(=O)OC(C)(C)C)NC(=O)CNC(=O)C(Cc1ccccc1)NC(=O)OCc1ccccc1)B(O)O (stereo not shown) [Z--Phe--Gly--Lys(Boc)--Boroval--OH]", "% Initial Activity": "55%"}
{"Compound": "CC(C)CC(NC(=O)CNC(=O)C(Cc1ccccc1)NC(=O)OCc1ccccc1)C(=O)NC(B(O)O)C(C)C (stereo not shown) [Z--Phe--Gly--Leu--Boroval--OH]", "% Initial Activity": "62%"}

Next up:
If you can, please state the reported % Initial Activity value of CC(C)C(NC(=O)C(Cc1ccccc1)NC(=O)CNC(=O)C(Cc1ccccc1)NC(=O)OCc1ccccc1)B(O)O (stereo not shown) [Z--Phe--Gly--Phe--Boroval--OH] .
47%

----------
- Study System: neutrophil elastase (Homo sapiens, UniProt P08246)
- Assay Summary: Inhibition of neutrophil elastase, additional peptide inhibitors preincubated in phosphate buffer (Table 3)
- Format: biochemical
- Set-up: Neutrophil elastase was prepared by the procedure described by Baugh. et al; from tissue
- Applied Conditions: Conc. 2.0 × 10^-7 M
Quantity Kind: k, first order rate constant for time-dependent inhibition
Kindly format the answer as number then unit.

Example entries and their recorded answers appear below.
{"Compound": "CC(C)CC(NC(=O)CNC(=O)C(Cc1ccccc1)NC(=O)OCc1ccccc1)C(=O)NC(B(O)O)C(C)C (stereo not shown)", "Value Reported": "0.26 min⁻¹"}
{"Compound": "CC(C)C(NC(=O)C(Cc1ccccc1)NC(=O)CNC(=O)C(Cc1ccccc1)NC(=O)OCc1ccccc1)B(O)O (stereo not shown)", "Value Reported": "0.18 min⁻¹"}
{"Compound": "CC(C)C(NC(=O)C1CCCN1C(=O)C(Cc1ccccc1)NC(=O)OC(C)(C)C)B(O)O (stereo not shown)", "Value Reported": "0.35 min⁻¹"}

Next up:
If you can, please state the reported k, first order rate constant for time-dependent inhibition value of CC(C)C(NC(=O)C(CCCCNC(=O)OC(C)(C)C)NC(=O)CNC(=O)C(Cc1ccccc1)NC(=O)OCc1ccccc1)B(O)O (stereo not shown) .
0.37 min⁻¹

----------
- Study System: neutrophil elastase (Homo sapiens)
- Sequence (P08246 30-267): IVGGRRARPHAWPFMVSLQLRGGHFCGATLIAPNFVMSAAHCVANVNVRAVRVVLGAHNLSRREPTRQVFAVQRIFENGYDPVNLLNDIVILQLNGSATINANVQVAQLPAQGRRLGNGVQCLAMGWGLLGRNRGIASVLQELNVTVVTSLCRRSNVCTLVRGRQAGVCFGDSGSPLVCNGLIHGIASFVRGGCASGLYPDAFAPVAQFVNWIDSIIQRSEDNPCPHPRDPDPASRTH
- Assay Summary: Kinetic constants for interaction with human neutrophil elastase (Table 1)
- Format: biochemical
- Parameters: Neutrophil elastase was prepared by the procedure described by Baugh. et al; from tissue
- Applied Conditions: progressive inhibition, Dixon plot; t = infinity, equilibrium; read-out: Ki Final
Quantity Kind: Ki (nM)
Only the number, expressed in nM, is required.

If you can, please state the reported Ki value of COC(=O)CCC(=O)N[C@@H](C)C(=O)N[C@@H](C)C(=O)N1CCC[C@H]1C(=O)NC(B(O)O)C(C)C (stereo partly shown) .
6.2

----------
- Study System: porcine pepsin (Sus scrofa)
- Assay Summary: Inhibition of pepsin
- Type: biochemical
- Applied Conditions: Conc. 5.0 × 10^-4 M
Quantity Kind: % Activity (%)
Only the number, expressed in %, is required.

If you can, please state the reported % Activity value of CC(NC(=O)C(C)NC(=O)OC(C)(C)C)B1OC(C)(C)C(C)(C)O1 (stereo not drawn) .
90

If you can, please state the reported % Activity value of CC(C)CC(NC(=O)CNC(=O)C(Cc1ccccc1)NC(=O)OC(C)(C)C)B1OCCNCCO1 (stereo not drawn) .
71

If you can, please state the reported % Activity value of `CC(C)C[C@H](NC(=O)CNC(=O)[C@@H](N)Cc1ccccc1)B1OC(C)(C)C(C)(C)O1.O=C(O)C(F)(F)F` .
69

----------
- Study System: neutrophil elastase (Homo sapiens)
- Sequence (P08246 30-267): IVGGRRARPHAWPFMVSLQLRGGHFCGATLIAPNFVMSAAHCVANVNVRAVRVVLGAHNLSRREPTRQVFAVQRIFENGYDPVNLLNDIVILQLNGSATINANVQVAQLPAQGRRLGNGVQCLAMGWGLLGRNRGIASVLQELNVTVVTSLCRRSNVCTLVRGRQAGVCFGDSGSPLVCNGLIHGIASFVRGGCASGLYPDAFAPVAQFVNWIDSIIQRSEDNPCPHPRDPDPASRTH
- Assay Summary: Kinetic constants for interaction with human neutrophil elastase (Table 1)
- Format: biochemical
- Design: Neutrophil elastase was prepared by the procedure described by Baugh. et al; from tissue
- Applied Conditions: progressive inhibition, Dixon plot; t = 0; inhibitor 30-300 nM; read-out: Ki Initial
Quantity Kind: Ki (nM)
Only the number, expressed in nM, is required.

If you can, please state the reported Ki value of COC(=O)CCC(=O)N[C@@H](C)C(=O)N[C@@H](C)C(=O)N1CCC[C@H]1C(=O)NC(B(O)O)C(C)C (stereo partly shown) .
91

----------
- Study System: neutrophil elastase (Homo sapiens)
- Assay Summary: Kinetic constants for interaction with human neutrophil elastase (Table 1)
- Format: biochemical
- Parameters: Neutrophil elastase was prepared by the procedure described by Baugh. et al; from tissue
- Applied Conditions: initial velocity studies, Lineweaver and Burk; inhibitor 200 nM; read-out: Ki Initial
Quantity Kind: Ki (nM)
Only the number, expressed in nM, is required.

If you can, please state the reported Ki value of COC(=O)CCC(=O)N[C@@H](C)C(=O)N[C@@H](C)C(=O)N1CCC[C@H]1C(=O)NC(B(O)O)C(C)C (stereo partly shown) .
150

----------
- Study System: porcine pepsin (Sus scrofa, UniProt P00791)
- Sequence (P00791 60-385): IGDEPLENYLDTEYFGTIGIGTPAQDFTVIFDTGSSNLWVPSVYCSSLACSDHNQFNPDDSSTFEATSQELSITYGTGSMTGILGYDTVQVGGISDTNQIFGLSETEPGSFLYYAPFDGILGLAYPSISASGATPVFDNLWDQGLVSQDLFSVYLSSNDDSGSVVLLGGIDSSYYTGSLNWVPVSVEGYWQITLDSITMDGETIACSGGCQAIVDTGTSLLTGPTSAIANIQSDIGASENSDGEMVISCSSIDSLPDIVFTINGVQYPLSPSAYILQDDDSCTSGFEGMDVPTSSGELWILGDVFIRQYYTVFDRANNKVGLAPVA
- Assay Summary: Inhibition of pepsin
- Format: biochemical
- Applied Conditions: Conc. 5.0 × 10^-4 M
Catalogue of % Activity readings, one per entry.
Only the number, expressed in %, is required.

{"Compound": "CC(C)CC(NC(=O)CNC(=O)OC(C)(C)C)B1OC(C)(C)C(C)(C)O1 (stereo not shown)", "Study System": "porcine pepsin (Sus scrofa, UniProt P00791)", "% Activity (%)": 87}
{"Compound": "CC(C)CC(NC(=O)CNC(=O)C(Cc1ccccc1)NC(=O)OC(C)(C)C)B1OC(C)(C)C(C)(C)O1 (stereo not shown)", "Study System": "porcine pepsin (Sus scrofa, UniProt P00791)", "% Activity (%)": 68}
{"Compound": "CC(C)CC(NC(=O)CNC(=O)OC(C)(C)C)B1OCCNCCO1 (stereo not shown)", "Study System": "porcine pepsin (Sus scrofa, UniProt P00791)", "% Activity (%)": 90}

Next up:
If you can, please state the reported % Activity value of CC(NC(=O)C(C)NC(=O)OC(C)(C)C)B1OCCNCCO1 (stereo not shown) .
85
